Each recorded value in this set is attributed to patent EP4792821A2.

Molecular target: F protein of hMPV virus strain B1 (human metapneumovirus (hMPV) B1)
Assay: cell-based or functional assay
Measurement Kind: EC50 (nM), plaque reduction, hMPV B1 on Vero cells
Reply numerically in nM, unit not repeated.

# count of solved cases: 10
• LVKKIDEFDASISQVNEKINQSLEEIRKSDELLHNVGSGSGK (N-terminal acetyl (Ac-); C-terminal lysine side chain carries cholesteryl hemisuccinate, K(Chol); C-terminal amide (-NH2)) [Compound 29] = 11.1
• FDASIEEVNRRIEESLRRIEESDRRLEEVNAEAAAKK (N-terminal acetyl (Ac-); C-terminal lysine side chain carries cholesteryl hemisuccinate, K(Chol); C-terminal amide (-NH2)) [Compound 42] = 10.1
• SDELVNKKIEFDKKINQSLKKIEESDKKKLEAAAKK (N-terminal acetyl (Ac-); C-terminal amide (-NH2)) [Compound 51] = 3.82
• DEFDKKIEEVNKKIEESLKKIEESDKKLEAAAKK (N-terminal acetyl (Ac-); C-terminal lysine side chain carries cholesteryl hemisuccinate, K(Chol); C-terminal amide (-NH2)) [Compound 17] = 3.61
• DEFDKKIEEVNKKIEESLKKIEESDKKLEEVEAAAKK (N-terminal acetyl (Ac-); C-terminal lysine side chain carries cholesteryl hemisuccinate, K(Chol); C-terminal amide (-NH2)) [Compound 21] = 4.92
• SDEFDKKIEEVNKKIEESLKKIEESDKKLGSGSGK (N-terminal acetyl (Ac-); C-terminal lysine side chain carries cholesteryl hemisuccinate, K(Chol); C-terminal amide (-NH2)) [Compound 20] = 4.27
• SDEFDKKIEEVNKKIEESLKKIEESDKKLEAAAKK (N-terminal acetyl (Ac-); C-terminal lysine side chain carries cholesteryl hemisuccinate, K(Chol); C-terminal amide (-NH2)) [Compound 16] = 4.5
• WDEFDKKIEEVNKKIEESLKKIEESDKKLEEVNEAAAKK (N-terminal acetyl (Ac-); C-terminal lysine side chain carries cholesteryl hemisuccinate, K(Chol); C-terminal amide (-NH2)) [Compound 41] = 9.46
• WDEFDASISQVNEKINQSLEEIRKSDELLHNVNAGLGSGSGK (N-terminal acetyl (Ac-); C-terminal lysine side chain carries cholesteryl hemisuccinate, K(Chol); C-terminal amide (-NH2)) [Compound 27] = 10.5
• DEFDASISQVNEKINQSLEEIRKSDELLHNEAAAKK (N-terminal acetyl (Ac-); C-terminal lysine side chain carries cholesteryl hemisuccinate, K(Chol); C-terminal amide (-NH2)) [Compound 28] = 13.8

Indicate the recorded EC50 (nM), plaque reduction, hMPV B1 on Vero cells value for this binder: WDEFDKKIEEVNKKIEESLKKIEESDKKLHNVEAAAKK (N-terminal acetyl (Ac-); C-terminal lysine side chain carries cholesteryl hemisuccinate, K(Chol); C-terminal amide (-NH2)) [Compound 44]
6.6

Indicate the recorded EC50 (nM), plaque reduction, hMPV B1 on Vero cells value for this binder: WDEFDASISQVNEKINQSLEEIRKSDELLHNEAAAKK (N-terminal acetyl (Ac-); C-terminal lysine side chain carries cholesteryl hemisuccinate, K(Chol); C-terminal amide (-NH2)) [Compound 45]
13.1

Indicate the recorded EC50 (nM), plaque reduction, hMPV B1 on Vero cells value for this binder: SLEQVNEKINQSLAFIRKSDEINQSDEEVNKSDELLEAAAKK (N-terminal acetyl (Ac-); C-terminal amide (-NH2)) [Compound 50]
5.95
